B1: Calcium-binding protein 2, residues 155 to 219; numbered along this chain, Q9NPB3 (parent)
chain: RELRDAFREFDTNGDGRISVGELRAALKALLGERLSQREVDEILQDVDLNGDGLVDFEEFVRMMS

- Variants of: B1
- protocolSummary: abundance fitness (aPCA) (normalised: wild type 0, dead -1); higher = more abundant; growth selection in yeast, the domain comes from the species named
- measurementConditions: Homo sapiens
Given measured abundance fitness, output True if it is greater than or equal to 0.01 and False if not.

Dear colleague, could you confirm whether `R1C` has abundance fitness at or above 0.01?
False

Dear colleague, could you confirm whether `A25Q` has abundance fitness at or above 0.01?
False

Dear colleague, could you confirm whether `V61H` has abundance fitness at or above 0.01?
True

Dear colleague, could you confirm whether `R34G` has abundance fitness at or above 0.01?
True

Dear colleague, could you confirm whether `R34A` has abundance fitness at or above 0.01?
True

Dear colleague, could you confirm whether `F10H` has abundance fitness at or above 0.01?
True

Dear colleague, could you confirm whether `M64W` has abundance fitness at or above 0.01?
True

Dear colleague, could you confirm whether `E42L` has abundance fitness at or above 0.01?
False

Dear colleague, could you confirm whether `S19Q` has abundance fitness at or above 0.01?
False

Dear colleague, could you confirm whether `Q37H` has abundance fitness at or above 0.01?
False

Dear colleague, could you confirm whether `F10A` has abundance fitness at or above 0.01?
True
